Origin of measurements: ChEMBL document CHEMBL4308859

Recorded measurements of pIC50, one per entry
system.name: Metabotropic glutamate receptor 2 (Rattus norvegicus, UniProt P31421)
Sequence (P31421 whole entry): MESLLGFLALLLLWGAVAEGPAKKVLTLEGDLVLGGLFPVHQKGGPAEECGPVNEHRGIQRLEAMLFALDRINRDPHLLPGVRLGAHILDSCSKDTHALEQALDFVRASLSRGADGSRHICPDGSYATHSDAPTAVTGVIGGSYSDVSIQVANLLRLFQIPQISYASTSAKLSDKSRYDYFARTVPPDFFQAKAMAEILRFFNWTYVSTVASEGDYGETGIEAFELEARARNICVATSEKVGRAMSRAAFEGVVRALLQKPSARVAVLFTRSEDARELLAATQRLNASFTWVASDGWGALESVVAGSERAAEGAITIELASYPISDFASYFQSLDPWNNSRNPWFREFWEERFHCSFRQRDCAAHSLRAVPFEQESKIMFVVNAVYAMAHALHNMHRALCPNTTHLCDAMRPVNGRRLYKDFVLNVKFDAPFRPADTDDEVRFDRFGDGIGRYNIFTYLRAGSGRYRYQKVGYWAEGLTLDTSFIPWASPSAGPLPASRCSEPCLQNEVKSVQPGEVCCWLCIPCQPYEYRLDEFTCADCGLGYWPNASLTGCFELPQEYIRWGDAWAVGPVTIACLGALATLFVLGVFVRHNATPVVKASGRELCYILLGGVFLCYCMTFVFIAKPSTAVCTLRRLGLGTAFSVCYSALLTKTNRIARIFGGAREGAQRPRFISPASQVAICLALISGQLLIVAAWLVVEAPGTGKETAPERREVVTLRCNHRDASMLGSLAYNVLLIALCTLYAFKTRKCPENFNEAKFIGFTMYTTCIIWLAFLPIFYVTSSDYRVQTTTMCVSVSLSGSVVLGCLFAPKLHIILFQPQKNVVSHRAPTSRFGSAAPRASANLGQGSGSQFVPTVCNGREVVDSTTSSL
protocol.details: Negative allosteric modulation of rat mGlu2R expressed in HEK293 cells co-expressing Galpha15 assessed as decrease in glutamate-induced calcium mobilization preincubated for 2.3 mins followed by glutamate addition and measured after 1.7 mins by Fluo-4-AM dye based fluorescence assay
pIC50 is defined as minus the log10 of a concentration measured in mol/L.

COc1ccc(OCc2cc3nc(C(N)=O)cc(-c4ccc(F)cc4)c3s2)cn1; 5.70

Asked: Entry under review: COc1ccc(-c2cc(C(N)=O)nc3cc(COc4ccc(C(F)(F)F)nc4)nn23)c(F)c1 . Reported pIC50?
Given back: 6.46

Asked: Same lookup for NC(=O)c1cc(-c2ccc(F)cc2F)n2nc(COc3ccnc(C(F)(F)F)c3)cc2n1 , please.
Given back: 6.99

Asked: Ok, now NC(=O)c1cc(-c2ccc(F)cc2)c2sc(CN3CCCC3)cc2n1
Given back: 5.18

* * *

system.name: UniProt P31421
protocol.details: Negative allosteric modulation of rat mGlu2R expressed in HEK293 cells co-expressing Galpha15 assessed as decrease in glutamate-induced calcium mobilization at 30 uM preincubated for 2.3 mins followed by glutamate addition and measured after 1.7 mins by Fluo-4-AM dye based fluorescence assay relative to control
Type: functional, cell-based
measured.metric: Emax
Phrase the answer as number then unit, nothing more needed.

Asked: // query Emax value for entry CN(Cc1cc2nc(C(N)=O)cc(-c3ccc(F)cc3)c2s1)C1COC1
Given back: 2.4%

Asked: // repeat for COc1ccc(-c2cc(C(N)=O)nc3cc(CN4CCOCC4)sc23)cc1 and report
Given back: 2.6%

Asked: Entry to check: C[C@@H]1CN(Cc2cc3nc(C(N)=O)cc(-c4ccc(F)cc4)c3s2)C[C@H](C)O1
Given back: 2.3%

Asked: Moving on to Cc1ncc(OCc2cc3nc(C(N)=O)cc(-c4ccc(F)cc4)c3s2)cn1
Given back: 6.9%

Asked: And for COc1ccc(-c2cc(C(N)=O)nc3cc(COc4ccc(C(F)(F)F)nc4)nn23)c(F)c1 ?
Given back: 4.2%

* * *

protocol.details: Plasma clearance in Sprague-Dawley rat at 1 mg/kg, iv by LC-MS/MS analysis
Format: ADME, organism-based
measured.metric: clearance (mL/min/kg)
Record the value in mL/min/kg, omitting the unit from your answer.

Asked: What clearance value was documented for this compound, NC(=O)c1cc(-c2ccc(F)cc2)n2nc(COc3ccnc(C(F)(F)F)c3)cc2n1 ?
Given back: 16.4

* * *

protocol.details: Plasma clearance in mouse
Assay type: ADME, organism-based
measured.metric: clearance (mL/min/kg)
Answer format: numeric, mL/min/kg implied, no suffix.

Asked: Name the recorded clearance for Cn1ccc(COc2cnc(C(N)=O)cc2-c2ccc(F)cc2)n1 .
Given back: 118

* * *

system.name: Metabotropic glutamate receptor 2 (Homo sapiens)
Sequence (Q14416 whole entry): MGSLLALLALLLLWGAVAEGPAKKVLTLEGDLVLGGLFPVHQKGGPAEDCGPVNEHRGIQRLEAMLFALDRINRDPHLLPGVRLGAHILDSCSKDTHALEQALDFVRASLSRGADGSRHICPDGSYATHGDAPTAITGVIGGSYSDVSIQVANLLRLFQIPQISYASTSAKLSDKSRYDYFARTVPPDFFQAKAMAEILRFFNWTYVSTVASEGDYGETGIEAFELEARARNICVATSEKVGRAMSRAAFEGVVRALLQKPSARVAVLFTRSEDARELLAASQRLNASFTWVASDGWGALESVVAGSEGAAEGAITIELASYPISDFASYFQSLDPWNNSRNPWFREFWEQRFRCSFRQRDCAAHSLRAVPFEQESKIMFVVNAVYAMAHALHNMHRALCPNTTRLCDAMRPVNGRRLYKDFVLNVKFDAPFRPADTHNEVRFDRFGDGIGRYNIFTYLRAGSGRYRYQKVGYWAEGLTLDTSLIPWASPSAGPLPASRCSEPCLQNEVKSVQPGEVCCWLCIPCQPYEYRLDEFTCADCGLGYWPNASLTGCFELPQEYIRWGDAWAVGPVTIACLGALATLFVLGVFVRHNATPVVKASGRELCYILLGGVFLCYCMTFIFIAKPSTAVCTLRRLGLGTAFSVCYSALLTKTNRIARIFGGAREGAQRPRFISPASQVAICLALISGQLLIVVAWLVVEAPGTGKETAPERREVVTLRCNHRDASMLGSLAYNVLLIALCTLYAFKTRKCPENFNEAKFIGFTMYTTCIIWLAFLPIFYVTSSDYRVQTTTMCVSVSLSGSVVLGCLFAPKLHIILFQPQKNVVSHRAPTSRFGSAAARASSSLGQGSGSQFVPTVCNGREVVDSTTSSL
protocol.details: Negative allosteric modulation of mGlu2R (unknown origin)
measured.metric: IC50
Be sure to follow the number with its unit.

Asked: # IC50 lookup, item C[C@@H]1CN(Cc2ccc3c(c2)c(=O)c(C(N)=O)cn3-c2ccc(F)cc2)C[C@H](C)O1
Given back: 207 nM

* * *

Recorded Emax by entry
system.name: UniProt:P31421
protocol.details: Negative allosteric modulation of rat mGlu2R expressed in HEK293 cells co-expressing Galpha15 assessed as decrease in glutamate-induced calcium mobilization at 30 uM preincubated for 2.3 mins followed by glutamate addition and measured after 1.7 mins by Fluo-4-AM dye based fluorescence assay relative to control
Type: functional, cell-based
Give the value, in units of %, as a plain number.

Sample answers from the record:
NC(=O)c1cc(-c2ccc(F)cc2)c2sc(CN3CCCC3)cc2n1; 4.1
NC(=O)c1cc(-c2ccc(F)cc2)n2nc(CCc3ccncc3)cc2n1; 2.6
Cn1ccc(OCc2cc3nc(C(N)=O)cc(-c4ccc(F)cc4)c3s2)n1; 1.9

Asked: Looking for the measured Emax of NC(=O)c1cc(-c2ccc(F)cc2)c2sc(COc3cncnc3)cc2n1 , can you help?
Given back: 26.2

Asked: Field entry: NC(=O)c1cc(-c2ccc(F)cc2)n2nc(COc3ccnc(Br)c3)cc2n1
Given back: 19.7

Asked: And NC(=O)c1cc(-c2ccc(F)cc2)c2sc(CN3CCC(F)(F)CC3)cc2n1 ?
Given back: 2.2

Asked: Same again, this time with NC(=O)c1cc(-c2ccc(F)cc2)c2sc(CN3CCSCC3)cc2n1
Given back: 2.4

Asked: Record: Cc1ccc(OCc2cc3nc(C(N)=O)cc(-c4ccc(F)cc4)c3s2)c(C)n1
Given back: 3.3
